# experimental.conditions: H) like A) with bovine serum albumin; 24 h 37° C.
Recorded Stability (% of remaining arachidonic acid by Method 1), one value per entry.
The reply should be a number in %, with the unit left off.

Problem: Please indicate Stability (% of remaining arachidonic acid by Method 1) recorded for NCCc1c[nH]c2ccccc12 [Example 23]
Result: 100

###

Reported PGE2 % values for a set of compounds
# measurement.target: enzyme (from seminal vesicles of sheep) (Ovis aries, UniProt P05979)
# experimental.conditions: Table 2; share of total prostaglandin
The response must be a number in % with no trailing unit.

// known answers, use as guide
Oc1cc(O)c2c(c1)O[C@H](c1ccc(O)c(O)c1)[C@H](O)C2 [Example 59, Epicatechin]: 71
C[C@@H]1O[C@@H](OC[C@H]2O[C@@H](Oc3c(-c4ccc(O)c(O)c4)oc4cc(O)cc(O)c4c3=O)[C@H](O)[C@@H](O)[C@@H]2O)[C@H](O)[C@H](O)[C@H]1O: 76
O=c1c(O)c(-c2ccc(O)cc2O)oc2cc(O)cc(O)c12: 54
O=C(CCc1ccc(O)cc1)c1c(O)cc(O)cc1O[C@@H]1O[C@H](CO)[C@@H](O)[C@H](O)[C@H]1O: 80
Oc1cc(O)c2c(c1)OC(c1ccc(O)c(O)c1)C(O)C2 (stereo not drawn): 70

Now look at this entry.
Problem: Tell us which PGE2 % value is on record for CC1=C(C)C(=O)C(CC[C@](C)(O)CCC[C@H](C)CCC[C@H](C)CCCC(C)C)=C(C)C1=O
Result: 80

###

# measurement.target: enzyme (from seminal vesicles of sheep) (Ovis aries, UniProt P05979)
# Sequence (P05979 25-600): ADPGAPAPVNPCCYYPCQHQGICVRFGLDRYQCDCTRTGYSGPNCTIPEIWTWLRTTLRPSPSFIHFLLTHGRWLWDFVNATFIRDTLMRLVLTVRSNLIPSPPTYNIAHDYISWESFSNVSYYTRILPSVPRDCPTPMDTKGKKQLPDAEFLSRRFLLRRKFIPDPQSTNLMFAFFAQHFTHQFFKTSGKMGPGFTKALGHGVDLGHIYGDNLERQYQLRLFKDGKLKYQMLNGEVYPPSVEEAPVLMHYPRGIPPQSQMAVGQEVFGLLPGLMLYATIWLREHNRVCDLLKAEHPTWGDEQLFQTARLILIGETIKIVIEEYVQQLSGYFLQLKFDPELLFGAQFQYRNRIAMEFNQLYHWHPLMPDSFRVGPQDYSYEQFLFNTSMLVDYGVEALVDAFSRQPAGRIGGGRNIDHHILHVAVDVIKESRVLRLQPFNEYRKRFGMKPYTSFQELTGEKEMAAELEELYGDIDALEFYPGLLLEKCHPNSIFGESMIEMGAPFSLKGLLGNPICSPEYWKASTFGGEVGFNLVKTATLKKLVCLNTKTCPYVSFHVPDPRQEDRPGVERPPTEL
# experimental.conditions: Table 1; share of total prostaglandin (=100%)
Doc: threshold 70% (exclusive). Items with PGE2 % beneath it return MET; others return NOT MET.

Would you please look over these solved cases?
NC(Cc1c[nH]c2ccccc12)C(=O)O (centres unmarked): NOT MET
N[C@@H](CSSC[C@H](N)C(=O)O)C(=O)O [Example 41, Cystine, reference compound]: NOT MET
NCCc1c[nH]c2ccc(O)cc12: NOT MET

Here is the next item to consider.
Problem: Given N[C@H](CS)C(=O)O , is recorded PGE2 % strictly lower than 70%?
Result: MET

###

# measurement.target: enzyme (from seminal vesicles of sheep) (Ovis aries, UniProt P05979)
# experimental.conditions: Table 1; share of total prostaglandin (=100%)
value.kind: PGD2 % (%)
Your answer is read as %, so omit the unit and give the number.

Problem: Retrieve PGD2 % measured for N[C@@H](CCC(=O)N[C@@H](CS)C(=O)NCC(=O)O)C(=O)O and print it.
Result: 0

Problem: Determine from records and report PGD2 % for NC(Cc1c[nH]c2ccc(O)cc12)C(=O)O (stereo not shown)
Result: 18

Problem: Return the recorded PGD2 % value; entry: Oc1ccccc1 [Example 3, phenol, reference compound]
Result: 18

Problem: Identify the reported PGD2 % for the following entry. O=C(O)CCc1ccc(O)cc1
Result: 16

Problem: Assign PGD2 % to the following record: CC(=O)NC(CS)C(=O)O (stereo not shown)
Result: 25

Problem: Fill in reported PGD2 % for this entry: O=C(O)c1ccc(O)cc1
Result: 18

Problem: Specify measured PGD2 % for NCCc1c[nH]c2ccccc12 .
Result: 16

Problem: Report PGD2 % for O=C(O)C=Cc1ccc(O)c(O)c1
Result: 17

Problem: Report PGD2 %, nothing else, for this compound: N[C@@H](Cc1ccccc1)C(=O)O [Example 4, L-phenylalanine, reference compound]
Result: 18

Problem: Kindly indicate its recorded PGD2 %. Item: N[C@@H](CS)C(=O)O
Result: 27

###

The entries below are paired with their reported Stabilization (% remaining unsaturated fatty acid by Method 1).
# experimental.conditions: 1440 min
Give just the number in %; leave the unit off.

Reference set (4 entries):
Oc1cc(O)c2c(c1)O[C@H](c1ccc(O)c(O)c1)[C@H](O)C2 [Example 59, Epicatechin]: 89
OC[C@H]1O[C@@H]2O[C@H]3[C@H](O)[C@@H](O)[C@@H](O[C@H]4[C@H](O)[C@@H](O)[C@@H](O[C@H]5[C@H](O)[C@@H](O)[C@@H](O[C@H]6[C@H](O)[C@@H](O)[C@@H](O[C@H]7[C@H](O)[C@@H](O)[C@@H](O[C@H]8[C@H](O)[C@@H](O)[C@@H](O[C@H]9[C@H](O)[C@@H](O)[C@@H](O[C@H]1[C@H](O)[C@H]2O)O[C@@H]9CO)O[C@@H]8CO)O[C@@H]7CO)O[C@@H]6CO)O[C@@H]5CO)O[C@@H]4CO)O[C@@H]3CO [Example 64, gamma-Dextrin (Cyclooctaamylose)]: 75
O=c1c(O)c(-c2ccc(O)cc2)oc2cc(O)cc(O)c12 [Example 56, Kaempferol]: 98
O=C(CCc1ccc(O)cc1)c1c(O)cc(O)cc1O[C@@H]1O[C@H](CO)[C@@H](O)[C@H](O)[C@H]1O [Example 53, Phlorizin]: 97

Now for another entry.
Problem: Check the records and state Stabilization (% remaining unsaturated fatty acid by Method 1) for O=C1C[C@@H](c2ccc(O)cc2)Oc2cc(O)cc(O)c21 [Example 55, Naringenin]
Result: 96

###

# measurement.target: enzyme (from seminal vesicles of sheep) (Ovis aries, UniProt P05979)
# experimental.conditions: Table 2; share of total prostaglandin
PGF2alpha % values, listed per item
Number first, unit second: that is the form wanted.

O=C(CCc1ccc(O)cc1)c1c(O)cc(O)cc1O[C@@H]1O[C@H](CO)[C@@H](O)[C@H](O)[C@H]1O: 2%
CC1=C(C)C(=O)C(CC[C@](C)(O)CCC[C@H](C)CCC[C@H](C)CCCC(C)C)=C(C)C1=O: 5%
O=C1C[C@@H](c2ccc(O)cc2)Oc2cc(O)cc(O)c21: 0%
C[C@@H]1O[C@@H](O[C@H]2[C@H](Oc3cc(O)c4c(c3)O[C@H](c3ccc(O)cc3)CC4=O)O[C@H](CO)[C@@H](O)[C@@H]2O)[C@H](O)[C@H](O)[C@H]1O: 2%

Problem: Please report the measured PGF2alpha % for COC1=C(OC)C(=O)C(C/C=C(\C)CC/C=C(\C)CC/C=C(\C)CC/C=C(\C)CC/C=C(\C)CC/C=C(\C)CC/C=C(\C)CC/C=C(\C)CC/C=C(\C)CCC=C(C)C)=C(C)C1=O [Example 47, Vitamin Q10, reference compound] tested on enzyme (from seminal vesicles of sheep) (Ovis aries, UniProt P05979).
Result: 78%

Problem: Tell me PGF2alpha % of C[C@@H]1O[C@@H](OC[C@H]2O[C@@H](Oc3c(-c4ccc(O)c(O)c4)oc4cc(O)cc(O)c4c3=O)[C@H](O)[C@@H](O)[C@@H]2O)[C@H](O)[C@H](O)[C@H]1O when tested on enzyme (from seminal vesicles of sheep) (Ovis aries, UniProt P05979).
Result: 6%

Problem: State recorded PGF2alpha % with enzyme (from seminal vesicles of sheep) (Ovis aries, UniProt P05979), entry O=c1c(O)c(-c2ccc(O)cc2)oc2cc(O)cc(O)c12 , no comment.
Result: 11%

###

# experimental.conditions: 1440 min
value.kind: Stabilization (% remaining unsaturated fatty acid by Method 1) (%)
Give a bare numeral; the unit % is implied.

C[C@@H]1O[C@@H](O[C@H]2[C@H](Oc3cc(O)c4c(c3)O[C@H](c3ccc(O)cc3)CC4=O)O[C@H](CO)[C@@H](O)[C@@H]2O)[C@H](O)[C@H](O)[C@H]1O [Example 54, Naringin]: 96
COC1=C(OC)C(=O)C(C/C=C(\C)CC/C=C(\C)CC/C=C(\C)CC/C=C(\C)CC/C=C(\C)CC/C=C(\C)CC/C=C(\C)CC/C=C(\C)CC/C=C(\C)CCC=C(C)C)=C(C)C1=O [Example 47, Vitamin Q10, reference compound]: 8

# next molecule below
Problem: Please supply the value of reported Stabilization (% remaining unsaturated fatty acid by Method 1) for the item OC[C@H]1O[C@@H]2O[C@H]3[C@H](O)[C@@H](O)[C@@H](O[C@H]4[C@H](O)[C@@H](O)[C@@H](O[C@H]5[C@H](O)[C@@H](O)[C@@H](O[C@H]6[C@H](O)[C@@H](O)[C@@H](O[C@H]7[C@H](O)[C@@H](O)[C@@H](O[C@H]1[C@H](O)[C@H]2O)O[C@@H]7CO)O[C@@H]6CO)O[C@@H]5CO)O[C@@H]4CO)O[C@@H]3CO [Example 62, alpha-Dextrin (Cyclohexaamylose)]
Result: 60
